Tested on: E. coli NIHJ
Quick list: MIC per entry.
The reply should contain only the number, in µg/mL.

1) Nc1nc(/C(=N/OC2CCCC2)C(=O)N[C@@H]2C(=O)N3C(C(=O)[O-])=C(CSc4cc[n+](CCF)cc4)OC[C@H]23)cs1    0.2
2) Nc1nc(/C(=N/OC2CCCC2)C(=O)N[C@@H]2C(=O)N3C(C(=O)[O-])=C(CSc4cc[n+](CC(=O)N5CCCC5)cc4)OC[C@H]23)cs1    0.2
3) Nc1nc(/C(=N/OC2CCCC2)C(=O)N[C@@H]2C(=O)N3C(C(=O)[O-])=C(CSc4cc[n+](CC(=O)N5CCNCC5)cc4)OC[C@H]23)cs1    0.2

Given the compound CO/N=C(\C(=O)N[C@@H]1C(=O)N2C(C(=O)[O-])=C(CSc3cc[n+](CC(=O)c4ccccc4)cc3)OC[C@H]12)c1csc(N)n1 , what is its reported MIC?
0.05

Given the compound CN(C)C(=O)C[n+]1ccc(SCC2=C(C(=O)[O-])N3C(=O)[C@@H](NC(=O)/C(=N\OC4CCCC4)c4csc(N)n4)[C@H]3CO2)cc1 , what is its reported MIC?
0.2

Given the compound Nc1nc(/C(=N/OC2CCCC2)C(=O)N[C@@H]2C(=O)N3C(C(=O)[O-])=C(CSc4cc[n+](CC(=O)NO)cc4)OC[C@H]23)cs1 , what is its reported MIC?
0.2

Given the compound CCC(=O)C[n+]1ccc(SCC2=C(C(=O)[O-])N3C(=O)[C@@H](NC(=O)/C(=N\OC4CCCC4)c4csc(N)n4)[C@H]3CO2)cc1 , what is its reported MIC?
0.2

Given the compound Nc1nc(/C(=N/OC2CCCC2)C(=O)N[C@@H]2C(=O)N3C(C(=O)[O-])=C(CSc4cc[n+](CC5CC5)cc4)OC[C@H]23)cs1 , what is its reported MIC?
0.1

Given the compound Nc1nc(/C(=N/OC2CCCC2)C(=O)N[C@@H]2C(=O)N3C(C(=O)[O-])=C(CSc4cc[n+](CCl)cc4)OC[C@H]23)cs1 , what is its reported MIC?
0.2

====

This section lists MIC readings for P. mirabilis 1287.
The reply should contain only the number, in µg/mL.

Here are 8 compounds together with their reported answers.
1. CN(C)C(=O)C[n+]1ccc(SCC2=C(C(=O)[O-])N3C(=O)[C@@H](NC(=O)/C(=N\OC4CCCC4)c4csc(N)n4)[C@H]3CO2)cc1    0.2
2. CCC(=O)C[n+]1ccc(SCC2=C(C(=O)[O-])N3C(=O)[C@@H](NC(=O)/C(=N\OC4CCCC4)c4csc(N)n4)[C@H]3CO2)cc1    0.1
3. Nc1nc(/C(=N/OC2CCCC2)C(=O)N[C@@H]2C(=O)N3C(C(=O)[O-])=C(CSc4cc[n+](CC(=O)N5CCCC5)cc4)OC[C@H]23)cs1    0.2
4. Nc1nc(/C(=N/OC2CCCC2)C(=O)N[C@@H]2C(=O)N3C(C(=O)[O-])=C(CSc4cc[n+](CC(=O)N5CCNCC5)cc4)OC[C@H]23)cs1    0.39
5. Nc1nc(/C(=N/OC2CCCC2)C(=O)N[C@@H]2C(=O)N3C(C(=O)[O-])=C(CSc4cc[n+](CC5CC5)cc4)OC[C@H]23)cs1    0.1
6. Nc1nc(/C(=N/OC2CCCC2)C(=O)N[C@@H]2C(=O)N3C(C(=O)[O-])=C(CSc4cc[n+](CCF)cc4)OC[C@H]23)cs1    0.2
7. Nc1nc(/C(=N/OC2CCCC2)C(=O)N[C@@H]2C(=O)N3C(C(=O)[O-])=C(CSc4cc[n+](CC(=O)NO)cc4)OC[C@H]23)cs1    0.2
8. CO/N=C(\C(=O)N[C@@H]1C(=O)N2C(C(=O)[O-])=C(CSc3cc[n+](CC(=O)c4ccccc4)cc3)OC[C@H]12)c1csc(N)n1    0.05

As a next step, examine the compound that follows.
Quick check: MIC on P. mirabilis 1287, item Nc1nc(/C(=N/OC2CCCC2)C(=O)N[C@@H]2C(=O)N3C(C(=O)[O-])=C(CSc4cc[n+](CCl)cc4)OC[C@H]23)cs1 ?
0.2
